assay: Solubility in PBS; type: physicochemical; details: Solubility (uM)
Solubility by entry:
Your answer is read as µM, so omit the unit and give the number.

CC[C@H](C)[C@@H]1NC(=O)[C@H](CC(=O)O)NC(=O)[C@]2(CC=CCCCC3(CCCC=CCCCCCC[C@@](C)(C(=O)N[C@@H](Cc4ccccc4)C(=O)N[C@@H](Cc4csc5ccccc45)C(=O)N[C@@H](Cc4c[nH]cn4)C(N)=O)NC(=O)[C@H](CCC(N)=O)NC(=O)[C@H](Cc4cccs4)NC(=O)[C@H](C)NC(=O)[C@H](C)NC(=O)[C@H](CCC(=O)O)NC(=O)[C@H](CC(=O)O)NC3=O)NC1=O)CCCN2C(C)=O (stereo partly drawn) [I-488]: 30
CC(=O)N1CCC[C@]12CC=CCCCC1(CCCC=CCCCCCC[C@@](C)(C(=O)N[C@@H](Cc3ccccc3)C(=O)N[C@@H](Cc3csc4ccccc34)C(=O)N[C@@H](CCC(N)=O)C(N)=O)NC(=O)[C@H](CC(N)=O)NC(=O)[C@H](Cc3ccccc3)NC(=O)[C@H](C)NC(=O)[C@H](C)NC(=O)[C@H](CC(=O)O)NC(=O)[C@H](Cc3nn[nH]n3)NC1=O)NC(=O)[C@H](C)NC(=O)[C@H](CC(=O)O)NC2=O (stereo partly drawn) [I-445]: 43

Now for another entry.
Task: GET /values?readout=Solubility&item= CC(=O)N1CCC[C@]12CC=CCCCC1(CCCC=CCCCOC(=O)N3CC[C@@](C(=O)N[C@@H](Cc4ccccc4)C(=O)N[C@@H](Cc4cccc5ccccc45)C(=O)N[C@@H](CO)C(N)=O)(C3)NC(=O)[C@H]([C@@H](C)O)NC(=O)[C@H](Cc3ccccc3)NC(=O)[C@H](C)NC(=O)[C@H](C)NC(=O)[C@H]([C@@H](C)O)NC(=O)[C@H](CC(=O)O)NC1=O)NC(=O)[C@H](CC(C)(C)C)NC(=O)[C@H](CC(=O)O)NC2=O (stereo partly drawn) [I-1272]
Result: 21

----------
assay: Solubility in PBS; type: physicochemical; conditions: Solubility (uM)
Solubility by entry:
Your answer is read as µM, so omit the unit and give the number.

Answered examples (5):
CCCC[C@@H]1NC(=O)[C@H](C)NC(=O)[C@H](C)NC(=O)[C@H](CCC(=O)O)NC(=O)[C@H](CC(=O)O)NC(=O)C2(CCCC=CCCCCCC[C@@](C)(C(=O)N[C@@H](Cc3ccccc3)C(=O)N[C@@H](Cc3csc4ccccc34)C(=O)N[C@@H](CCC(N)=O)C(N)=O)NC(=O)[C@H](CCC(N)=O)NC1=O)CCCC=CC[C@]1(CCCN1C(C)=O)C(=O)N[C@@H](CC(=O)O)C(=O)N[C@@H]([C@@H](C)CC)C(=O)N2 (stereo partly drawn) [I-728]: 38
CC(=O)N1CCC[C@]12CC=CCCCC1(CCCC=CCCCOC(=O)N3CC[C@@](C(=O)N[C@@H](Cc4ccsc4)C(=O)N[C@@H](Cc4csc5ccccc45)C(=O)N[C@@H](CCC(N)=O)C(N)=O)(C3)NC(=O)[C@H]([C@@H](C)O)NC(=O)[C@H](Cc3ccccc3)NC(=O)[C@H](C)NC(=O)[C@H](C)NC(=O)[C@H]([C@@H](C)O)NC(=O)[C@H](CC(=O)O)NC1=O)NC(=O)[C@H](CC(C)(C)C)NC(=O)[C@H](CC(=O)O)NC2=O (stereo partly drawn) [I-1166]: 14
CC(=O)N1CCC[C@]12CC=CCCCC1(CCCC=CCCCOC(=O)N3CC[C@@](C(=O)N[C@@H](Cc4c(F)c(F)c(F)c(F)c4F)C(=O)N[C@@H](Cc4csc5ccccc45)C(=O)N[C@@H](CCC(N)=O)C(N)=O)(C3)NC(=O)[C@H](CC(C)C)NC(=O)[C@H](Cc3ccccc3)NC(=O)[C@H](C)NC(=O)[C@H](C)NC(=O)[C@H](CC(=O)O)NC(=O)[C@H](CC(=O)O)NC1=O)NC(=O)[C@H](CC(C)(C)C)NC(=O)[C@H](CC(=O)O)NC2=O (stereo partly drawn) [I-1185]: 33
CC(=O)N1CCC[C@]12CC=CCCCC1(CCCC=CCCCOC(=O)N3CC[C@@](C(=O)N[C@@H](Cc4ccccc4Cl)C(=O)N[C@@H](Cc4csc5ccccc45)C(=O)N[C@@H](C(N)=O)[C@H](C)O)(C3)NC(=O)[C@H](CC(N)=O)NC(=O)[C@H](Cc3ccccc3)NC(=O)[C@H](C)NC(=O)[C@H](C)NC(=O)[C@H](CCC(=O)O)NC(=O)[C@H](CC(=O)O)NC1=O)NC(=O)[C@H](CC(C)(C)C)NC(=O)[C@H](CC(=O)O)NC2=O (stereo partly drawn) [I-1031]: 47
CC(=O)N1CCC[C@]12CC=CCCCC1(CCCC=CCCCOC(=O)N3CC[C@@](C(=O)N[C@@H](Cc4ccsc4)C(=O)N[C@@H](Cc4csc5ccccc45)C(=O)N[C@@H](CCC(N)=O)C(N)=O)(C3)NC(=O)[C@H](CC(C)C)NC(=O)[C@H](Cc3cccc(C#N)c3)NC(=O)[C@H](C)NC(=O)[C@H](C)NC(=O)[C@H](CC(=O)O)NC(=O)[C@H](CC(=O)O)NC1=O)NC(=O)[C@H](CC(C)(C)C)NC(=O)[C@H](CC(=O)O)NC2=O (stereo partly drawn) [I-1201]: 47

Task: GET /values?readout=Solubility&item= CC(=O)N1CCC[C@]12CC=CCCCC1(CCCC=CCCCOC(=O)N3CC[C@@](C(=O)N[C@@H](Cc4ccsc4)C(=O)N[C@@H](Cc4csc5ccccc45)C(=O)N[C@@H](CCC(N)=O)C(=O)N[C@H](C)C(=O)N[C@@H](C)C(=O)N[C@@H](C)C(N)=O)(C3)NC(=O)[C@H](CC(N)=O)NC(=O)[C@H](Cc3ccccc3)NC(=O)[C@H](C)NC(=O)[C@H](C)NC(=O)[C@H](CC(=O)O)NC(=O)[C@H](CC(=O)O)NC1=O)NC(=O)[C@H](CC(C)(C)C)NC(=O)[C@H](CC(=O)O)NC2=O (stereo partly drawn) [I-871]
Result: 45

Task: Check CC[C@H](C)[C@@H]1NC(=O)[C@H](CC(=O)O)NC(=O)[C@]2(CC=CCCCC3(CCCC=CCCCCCC[C@@](C)(C(=O)N[C@@H](Cc4ccccc4)C(=O)N[C@@H](Cc4csc5ccccc45)C(=O)N[C@@H](CCC(N)=O)C(N)=O)NC(=O)[C@H](CCC(N)=O)NC(=O)[C@H](Cc4ccccc4)NC(=O)[C@H](C)NC(=O)[C@H](C)NC(=O)[C@H](CCC(=O)O)NC(=O)[C@H](CC(=O)O)NC3=O)NC1=O)CCCN2C(=O)c1cccnc1 (stereo partly drawn) [I-598] too.
Result: 49

Task: Check CC(=O)N1CCC[C@]12CC=CCCCC1(CCCC=CCCCOC(=O)N3CC[C@@](C(=O)N[C@@H](Cc4ccccc4Cl)C(=O)N[C@@H](Cc4csc5ccccc45)C(=O)N[C@@H](C(N)=O)[C@H](C)O)(C3)NC(=O)[C@H](CO)NC(=O)[C@H](Cc3ccccc3)NC(=O)[C@H](C)NC(=O)[C@H](C)NC(=O)[C@H](CC(=O)O)NC(=O)[C@H](CC(=O)O)NC1=O)NC(=O)[C@H](CC1CCCCC1)NC(=O)[C@H](CC(=O)O)NC2=O (stereo partly drawn) [I-1136] too.
Result: 40

Task: Check CC(=O)N1CCC[C@]12CC=CCCCC1(CCCC=CCCCCCC[C@@](C)(C(=O)N[C@@H](Cc3ccccc3)C(=O)N[C@@H](Cc3c[nH]c4ccccc34)C(=O)N[C@@H](CCC(N)=O)C(N)=O)NC(=O)[C@H](C(C)C)NC(=O)[C@H](Cc3ccc(F)c(F)c3)NC(=O)[C@H](C)NC(=O)[C@H](C)NC(=O)[C@H](CC(=O)O)NC(=O)[C@H](CC(=O)O)NC1=O)NC(=O)[C@H](C)NC(=O)[C@H](CC(=O)O)NC2=O (stereo partly drawn) [I-267] too.
Result: 37

----------
biological target: full-length beta-Catenin (Uniprot ID P35222) (Homo sapiens, UniProt P35222); construct: 10 nM full-length beta-Catenin (Uniprot ID P35222); experiment: Fluorescence polarization IC50 (beta-catenin / 5FAM-TCF4 10-53 competition); type: binding; conditions: read-out: beta-Catenin FP IC50
Sequence (P35222 whole entry): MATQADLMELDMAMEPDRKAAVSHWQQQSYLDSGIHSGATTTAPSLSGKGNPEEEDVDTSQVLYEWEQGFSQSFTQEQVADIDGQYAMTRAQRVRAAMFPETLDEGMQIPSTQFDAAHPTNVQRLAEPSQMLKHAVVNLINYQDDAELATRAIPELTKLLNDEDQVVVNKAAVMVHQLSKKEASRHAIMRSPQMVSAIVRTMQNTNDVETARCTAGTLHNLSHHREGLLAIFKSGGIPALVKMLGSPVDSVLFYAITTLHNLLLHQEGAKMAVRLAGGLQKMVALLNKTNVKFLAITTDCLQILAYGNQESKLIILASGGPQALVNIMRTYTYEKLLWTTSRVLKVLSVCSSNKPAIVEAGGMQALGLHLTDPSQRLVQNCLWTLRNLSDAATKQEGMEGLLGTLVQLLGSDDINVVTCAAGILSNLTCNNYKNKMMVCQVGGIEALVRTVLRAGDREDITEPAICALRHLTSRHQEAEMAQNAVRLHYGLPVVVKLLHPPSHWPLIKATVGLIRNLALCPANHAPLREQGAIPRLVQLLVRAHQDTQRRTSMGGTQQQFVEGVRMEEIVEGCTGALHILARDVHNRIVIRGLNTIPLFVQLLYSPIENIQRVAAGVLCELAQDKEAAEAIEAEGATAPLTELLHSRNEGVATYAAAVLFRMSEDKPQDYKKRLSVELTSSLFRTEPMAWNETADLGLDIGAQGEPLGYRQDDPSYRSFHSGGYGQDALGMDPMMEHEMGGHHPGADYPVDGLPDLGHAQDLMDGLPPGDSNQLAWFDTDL
IC50 by entry:
Your answer is read as nM, so omit the unit and give the number.

Answered examples (8):
CC(=O)N1CCC[C@]12CC=CCCCC1(CCCC=CCCCOC(=O)N3CC[C@@](C(=O)N[C@@H](Cc4ccsc4)C(=O)N[C@@H](Cc4csc5ccccc45)C(=O)N[C@@H](Cc4c[nH]cn4)C(=O)N[C@@H](C)C(N)=O)(C3)NC(=O)[C@H](CC(N)=O)NC(=O)[C@H](Cc3ccccc3)NC(=O)[C@H](C)NC(=O)[C@H](C)NC(=O)[C@H](CC(=O)O)NC(=O)[C@H](CC(=O)O)NC1=O)NC(=O)[C@H](CC(C)(C)C)NC(=O)[C@H](CC(=O)O)NC2=O (stereo partly drawn) [I-820]: 6
CC(=O)N1CCC[C@]12CC=CCCCC1(CCCC=CCCCOC(=O)N3CC[C@@](C(=O)N[C@@H](Cc4ccsc4)C(=O)N[C@@H](Cc4csc5ccccc45)C(N)=O)(C3)NC(=O)[C@H](CC(N)=O)NC(=O)[C@H](Cc3ccccc3)NC(=O)[C@H](C)NC(=O)[C@H](C)NC(=O)[C@H]([C@@H](C)O)NC(=O)[C@H](CC(=O)O)NC1=O)NC(=O)[C@H](CC(C)(C)C)NC(=O)[C@H](CC(=O)O)NC2=O (stereo partly drawn) [I-859]: 36
CC(=O)N1CCC[C@]12CC=CCCCC1(CCCC=CCCCCOC(=O)N3CC[C@@](C(=O)N[C@@H](Cc4ccsc4)C(=O)N[C@@H](Cc4csc5ccccc45)C(=O)N[C@@H](Cc4c[nH]cn4)C(=O)N[C@@H](C)C(N)=O)(C3)NC(=O)[C@H](CC(N)=O)NC(=O)[C@H](Cc3ccccc3)NC(=O)[C@H](C)NC(=O)[C@H](C)NC(=O)[C@H](CC(=O)O)NC(=O)[C@H](CC(=O)O)NC1=O)NC(=O)[C@H](CC(C)(C)C)NC(=O)[C@H](CC(=O)O)NC2=O (stereo partly drawn) [I-827]: 13
CC(=O)N1CCC[C@]12CC=CCCCC1(CCCC=CCCCOC(=O)N3CC[C@@](C(=O)N[C@@H](Cc4ccsc4)C(=O)N[C@@H](Cc4c[nH]c5cc(Cl)ccc45)C(=O)N[C@@H](Cc4c[nH]cn4)C(N)=O)(C3)NC(=O)[C@H](CC(N)=O)NC(=O)[C@H](Cc3ccccc3)NC(=O)[C@H](C)NC(=O)[C@H](C)NC(=O)[C@H](CC(=O)O)NC(=O)[C@H](CC(=O)O)NC1=O)NC(=O)[C@H](CC(C)(C)C)NC(=O)[C@H](CC(=O)O)NC2=O (stereo partly drawn) [I-798]: 106
CC(=O)N1CCC[C@]12CC=CCCCC1(CCCC=CCCCOC(=O)N3CC[C@@](C(=O)N[C@@H](Cc4ccccc4)C(=O)N[C@@H](Cc4csc5ccccc45)C(=O)N[C@@H](CCC(N)=O)C(N)=O)(C3)NC(=O)[C@H](CC(C)C)NC(=O)[C@H](Cc3ccccc3)NC(=O)[C@H](C)NC(=O)[C@H](C)NC(=O)[C@H](CCC(=O)O)NC(=O)[C@H](CC(=O)O)NC1=O)NC(=O)[C@H](CC(C)(C)C)NC(=O)[C@H](CC(=O)O)NC2=O (stereo partly drawn) [I-1074]: 498
CC(=O)N1CCC[C@]12CC=CCCCC1(CCCC=CCCCOC(=O)N3CC[C@@](C(=O)N[C@@H](Cc4ccsc4)C(=O)N[C@@H](Cc4csc5ccccc45)C(N)=O)(C3)NC(=O)[C@H](CC(N)=O)NC(=O)[C@H](Cc3ccccc3)NC(=O)[C@H](C)NC(=O)[C@H](C)NC(=O)[C@H](CCC(N)=O)NC(=O)[C@H](CC(=O)O)NC1=O)NC(=O)[C@H](CC(C)(C)C)NC(=O)[C@H](CC(=O)O)NC2=O (stereo partly drawn) [I-858]: 34
COc1ccccc1C[C@H](NC(=O)[C@]12CCN(C1)C(=O)OCCCC=CCCCC1(CCCC=CC[C@]3(CCCN3C(C)=O)C(=O)N[C@@H](CC(=O)O)C(=O)N[C@@H](CC3CCCCC3)C(=O)N1)C(=O)N[C@@H](CC(=O)O)C(=O)N[C@@H](CC(=O)O)C(=O)N[C@@H](C)C(=O)N[C@@H](C)C(=O)N[C@@H](Cc1ccccc1)C(=O)N[C@@H](CO)C(=O)N2)C(=O)N[C@@H](Cc1csc2ccccc12)C(=O)N[C@@H](CO)C(N)=O (stereo partly drawn) [I-1104]: 10
CC(=O)N1CCC[C@]12CC=CCCCC1(CCCC=CCCCCOC(=O)N3CC[C@@](C(=O)N[C@@H](Cc4ccsc4)C(=O)N[C@@H](Cc4csc5ccccc45)C(=O)N[C@@H](CCC(N)=O)C(=O)N[C@@H](C)C(N)=O)(C3)NC(=O)[C@H](CC(N)=O)NC(=O)[C@H](Cc3ccccc3)NC(=O)[C@H](C)NC(=O)[C@H](C)NC(=O)[C@H](CC(=O)O)NC(=O)[C@H](CC(=O)O)NC1=O)NC(=O)[C@H](CC(C)(C)C)NC(=O)[C@H](CC(=O)O)NC2=O (stereo partly drawn) [I-825]: 15

Task: Reported IC50 for full-length beta-Catenin (Uniprot ID P35222) (Homo sapiens, UniProt P35222), given CC(=O)N1CCC[C@]12CC=CCCCC1(CCCC=CCCCOC(=O)N3CC[C@@](C(=O)N[C@@H](Cc4ccccc4Cl)C(=O)N[C@@H](Cc4csc5ccccc45)C(=O)N[C@@H](CCC(N)=O)C(N)=O)(C3)NC(=O)[C@H](CC(N)=O)NC(=O)[C@H](Cc3ccccc3)NC(=O)[C@H](C)NC(=O)[C@H](CC(C)C)NC(=O)[C@H](CN(CC(=O)O)CC(F)(F)F)NC(=O)[C@H](CC(=O)O)NC1=O)NC(=O)[C@H](CC(C)(C)C)NC(=O)[C@H](CC(=O)O)NC2=O (stereo partly drawn) [I-1007] ?
Result: 6

Values were extracted from patent US20240116985A1.
